# Protocol Description: AUC in rat at 1 mg/kg, po
# Format: ADME, organism-based
# Design: dose 1 mg/kg, route oral
# Experimental Conditions: plasma
Measurement Name: AUC (ng·h/mL)
Give bare numbers, in ng·h/mL.

Which AUC is listed for COc1ccc(-n2cnc3ccc(-c4nnc(SCc5cccc(C#N)c5)o4)cc32)cc1 ?
7.9

---

# System Name: Mitogen-activated protein kinase 14 (Homo sapiens, UniProt Q16539)
# Sequence (Q16539 whole entry): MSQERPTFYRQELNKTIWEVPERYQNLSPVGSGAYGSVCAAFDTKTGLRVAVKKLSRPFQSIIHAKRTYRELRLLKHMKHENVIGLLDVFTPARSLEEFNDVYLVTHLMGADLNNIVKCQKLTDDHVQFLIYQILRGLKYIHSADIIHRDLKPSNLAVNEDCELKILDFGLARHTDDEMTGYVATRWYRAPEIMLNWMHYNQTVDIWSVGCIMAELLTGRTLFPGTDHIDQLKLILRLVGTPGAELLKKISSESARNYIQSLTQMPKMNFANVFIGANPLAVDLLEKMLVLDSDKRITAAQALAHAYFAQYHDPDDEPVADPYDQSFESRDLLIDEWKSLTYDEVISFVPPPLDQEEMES
# Protocol Description: Inhibition of p38alpha
Measurement Name: IC50

Given the compound COc1ccc(-n2cnc3ccc(-c4nnc(SCc5cccc(C#N)c5)o4)cc32)cc1 , what is its reported IC50?
> 10 µM
